Biological target: 5-lipoxygenase (Cavia porcellus)
Construct: A cytosol fraction of peritoneal exudate cell from male Hartley guinea pig (weighing 400 to 700 g) was used as 5-lipoxygenase; endogenous in cells; host or cells: cytosol fraction of peritoneal exudate cells from male Hartley guinea pig
Sequence (A0A286X958 1-674): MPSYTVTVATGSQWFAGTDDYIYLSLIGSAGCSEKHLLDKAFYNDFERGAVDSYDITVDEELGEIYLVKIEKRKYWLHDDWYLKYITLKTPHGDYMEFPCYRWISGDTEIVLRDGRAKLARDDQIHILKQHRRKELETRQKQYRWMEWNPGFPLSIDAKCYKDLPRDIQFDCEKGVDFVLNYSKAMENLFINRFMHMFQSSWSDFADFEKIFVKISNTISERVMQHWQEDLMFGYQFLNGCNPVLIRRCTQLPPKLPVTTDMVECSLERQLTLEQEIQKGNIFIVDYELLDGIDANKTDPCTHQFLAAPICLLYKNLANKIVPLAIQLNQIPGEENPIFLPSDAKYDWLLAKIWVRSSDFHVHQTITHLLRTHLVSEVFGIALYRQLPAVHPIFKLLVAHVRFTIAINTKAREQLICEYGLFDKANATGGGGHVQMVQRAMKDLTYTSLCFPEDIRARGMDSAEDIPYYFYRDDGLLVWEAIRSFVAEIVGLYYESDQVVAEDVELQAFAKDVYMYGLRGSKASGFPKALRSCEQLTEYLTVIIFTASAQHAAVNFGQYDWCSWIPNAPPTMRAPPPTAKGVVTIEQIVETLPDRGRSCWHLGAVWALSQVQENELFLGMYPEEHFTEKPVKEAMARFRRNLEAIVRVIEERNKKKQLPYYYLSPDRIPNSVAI
Assay: Inhibitory effect on 5-lipoxygenase activity (antiallergic activity in vitro)
Format: biochemical, guinea pig (male Hartley)
Conditions: 10^-5 M test compound; guinea pig peritoneal exudate cell cytosol; mean of 3 to 6 experiments
measure: inhibition at 10 µM (%)

{"molecule": "COc1cccc2c(O)c(C(=O)NCCCCN3CCC(=C(c4ccccc4)c4ccccc4)CC3)cnc12", "unit.of.measurement": "%", "inhibition at 10 µM": 93.3}
{"molecule": "COc1c(C(=O)NCCCCN2CCN(C(c3ccccc3)c3ccccc3)CC2)cnc2ccccc12 [Example 5, hydrate]", "unit.of.measurement": "%", "inhibition at 10 µM": 80.3}
{"molecule": "Cc1ccc2c(O)c(C(=O)NCCCCN3CCC(=C(c4ccccc4)c4ccccc4)CC3)cnc2n1 [Example 1, hydrate]", "unit.of.measurement": "%", "inhibition at 10 µM": 96.8}
{"molecule": "N#Cc1ccc2ncc(C(=O)NCCCCN3CCN(C(c4ccccc4)c4ccccc4)CC3)c(O)c2c1", "unit.of.measurement": "%", "inhibition at 10 µM": 67.9}
{"molecule": "N#Cc1ccc2c(O)c(C(=O)NCCCCN3CCN(C(c4ccccc4)c4ccccc4)CC3)cnc2c1", "unit.of.measurement": "%", "inhibition at 10 µM": 84.7}
{"molecule": "COc1ccc2c(O)c(C(=O)NCCCCN3CCN(C(c4ccccc4)c4ccccc4)CC3)cnc2c1", "unit.of.measurement": "%", "inhibition at 10 µM": 92.8}
{"molecule": "Cc1cccc2c(O)c(C(=O)NCCCCN3CCN(C(c4ccccc4)c4ccccc4)CC3)cnc12", "unit.of.measurement": "%", "inhibition at 10 µM": 90.6}
{"molecule": "N#Cc1cccc2ncc(C(=O)NCCCCN3CCN(C(c4ccccc4)c4ccccc4)CC3)c(O)c12", "unit.of.measurement": "%", "inhibition at 10 µM": 92.1}
{"molecule": "CC(C)c1ccc2ncc(C(=O)NCCCCN3CCN(C(c4ccccc4)c4ccccc4)CC3)c(O)c2c1", "unit.of.measurement": "%", "inhibition at 10 µM": 95.3}
{"molecule": "COc1cccc2c(O)c(C(=O)NCCCCN3CCN(C(c4ccccc4)c4ccccc4)CC3)cnc12", "unit.of.measurement": "%", "inhibition at 10 µM": 91.3}
{"molecule": "O=C(NCCCCN1CCN(C(c2ccccc2)c2ccccc2)CC1)c1cnc2ccccc2c1O", "unit.of.measurement": "%", "inhibition at 10 µM": 83.7}
{"molecule": "COc1ccc2ncc(C(=O)NCCCCN3CCN(C(c4ccccc4)c4ccccc4)CC3)c(O)c2c1", "unit.of.measurement": "%", "inhibition at 10 µM": 93.2}
{"molecule": "Cc1ccc2c(S)c(C(=O)NCCCCN3CCN(C(c4ccccc4)c4ccccc4)CC3)cnc2n1", "unit.of.measurement": "%", "inhibition at 10 µM": 88.3}
{"molecule": "CC(C)c1ccc(C(=O)NCCCCN2CCN(C(c3ccccc3)c3ccccc3)CC2)c(O)n1", "unit.of.measurement": "%", "inhibition at 10 µM": 75.1}
{"molecule": "CCCCOc1cccc2c(O)c(C(=O)NCCCCN3CCN(C(c4ccccc4)c4ccccc4)CC3)cnc12", "unit.of.measurement": "%", "inhibition at 10 µM": 94.8}
{"molecule": "Cc1ccc2ncc(C(=O)NCCCCN3CCN(C(c4ccccc4)c4ccccc4)CC3)c(O)c2c1", "unit.of.measurement": "%", "inhibition at 10 µM": 93.7}
{"molecule": "Cc1ccc2c(O)c(C(=O)NCCCCN3CCN(C(c4ccccc4)c4ccccc4)CC3)cnc2c1", "unit.of.measurement": "%", "inhibition at 10 µM": 93}
{"molecule": "Cc1ccc2c(O)c(C(=O)NCCCCN3CCN(C(c4ccccc4)c4ccccc4)CC3)cnc2n1 [Example 2, hydrate]", "unit.of.measurement": "%", "inhibition at 10 µM": 79.6}
{"molecule": "O=C(NCCCCN1CCN(C(c2ccccc2)c2ccccc2)CC1)c1cnc2cccc(O)c2c1O", "unit.of.measurement": "%", "inhibition at 10 µM": 95.4}

Provenance of the data: patent US4965266A
